assayInfo: Metabolic stability in rat liver microsomes (RLMs)
conditionParameters: rat, Half Life (min) in RLMs (single replicates R1–R3), Fig. 5e source data
recordedEndpoint: half-life
The reply should read as a number followed by its unit.

For the molecule O=C1C[C@H]2CCCN2C(=O)[C@H](Cc2ccccc2)NC(=O)[C@@H](NC(=O)c2ccc(Cl)s2)CSC/C=C/CSCCN1 [peptide 32] , what half-life is on record?
4.98 min

====

assayInfo: Metabolic stability in rat liver microsomes (RLMs)
conditionParameters: rat, microsomes, CL (ul/min/mg protein) R2, RLM CL; replicate R2
recordedEndpoint: microsomal CLint (µL/min/mg)
Use µL/min/mg as the unit, but write only the number.

Previously resolved entries follow.
compound="C[C@@H]1NC(=O)[C@@H](NC(=O)c2ccc(Cl)s2)CSCc2cccc(n2)CSCCNC(=O)[C@H]2CCCN(C2)C1=O [compound 30]" valueobserved=59.7
compound="O=C1CC2CCN(CC2)C(=O)[C@H](Cc2ccccc2)NC(=O)[C@@H](NC(=O)c2ccc(Cl)s2)CSCc2cccc(n2)CSCCN1 [compound 15]" valueobserved=76.3
compound="O=C1CCSC/C=C/CSCCNC(=O)[C@H](CNC(=O)c2ccc(Cl)s2)NC(=O)[C@H](Cc2ccccn2)N1 [compound 22]" valueobserved=255

Kindly review the next compound as well.
May I ask what microsomal CLint has been recorded for NC(=O)NCCC[C@@H]1NC(=O)[C@@H](NC(=O)c2ccc(Cl)s2)CNC(=O)CCSCc2cccc(n2)CSCCNC1=O [compound 20] ?
24

====

assayInfo: Metabolic stability in rat liver microsomes (RLMs)
conditionParameters: rat, microsomes, CL (ul/min/mg protein) R1, RLM CL; replicate R1
Rule: condition met for microsomal CLint not less than 80 µL/min/mg, condition not met for anything less.

compound="C[C@@H]1NC(=O)[C@@H](NC(=O)c2ccc(Cl)s2)CNC(=O)CCSCc2cccc(n2)CSCCNC1=O [compound 18]" class="condition met"
compound="O=C(N[C@H]1CSCc2cccc(n2)CSCCNC(=O)[C@H](Cc2c[nH]cn2)NC(=O)C2(CCCC2)NC1=O)c1ccc(Cl)s1 [compound 29]" class="condition not met"
compound="O=C1CC2CCN(CC2)C(=O)[C@H](Cc2ccccc2)NC(=O)[C@@H](NC(=O)c2ccc(Cl)s2)CSCc2cccc(n2)CSCCN1 [compound 15]" class="condition met"

For this compound, is measured microsomal CLint 80 µL/min/mg or higher? O=C1C[C@H]2CCCN2C(=O)[C@H](Cc2ccccn2)NC(=O)[C@@H](NC(=O)c2ccc(Cl)s2)CSCCS(=O)(=O)CCSCCN1 [compound 12]
condition met

Also O=C(N[C@H]1CSCCS(=O)(=O)CCSCCNC(=O)C2(CC2)CNC(=O)[C@H](Cc2ccccc2)NC1=O)c1ccc(Cl)s1 [compound 16] ?
condition not met

====

targetOrTestSystem: human α-thrombin (Homo sapiens)
assayInfo: Sub-library screen for active and permeable cyclic peptides (PAMPA plus thrombin inhibition)
Format: biochemical
conditionParameters: PAMPA acceptor well after 14 h, 5 μM donor; crude; slopes normalized to DMSO
Binary classification by Residual thrombin activity: Top sample, with 90 as an inclusive lower bound for 1; all other cases are -1.

// below: answered molecules
molecule="O=C1C[C@H]2CCCN2C(=O)[C@H](Cc2ccc(Cl)cc2)NC(=O)[C@@H](NC(=O)c2ccc(Cl)s2)CCSCc2cccc(c2)CSCCN1 [C2-X34-L5]" class=1
molecule="O=C1C[C@H]2CCCN2C(=O)[C@H](Cc2ccccc2)NC(=O)[C@@H](NC(=O)c2ccc(Cl)s2)CCCSCc2ccc(cc2)CSCCN1 [C3-X5-L3]" class=-1
molecule="O=C1C[C@H]2CCCN2C(=O)[C@H](Cc2ccccc2)NC(=O)[C@@H](NC(=O)c2ccc(Cl)s2)CCCSCCS(=O)(=O)CCSCCN1 [C3-X5-L2]" class=-1
molecule="CN1C(=O)[C@@H](NC(=O)c2ccc(Cl)s2)CSCCS(=O)(=O)CCSCCNC(=O)C[C@H]2CCCN2C(=O)[C@@H]1Cc1ccccc1 [C1-X32-L2]" class=1

Is Residual thrombin activity: Top sample for COc1ccc(C[C@@H]2NC(=O)[C@@H](NC(=O)c3ccc(Cl)s3)CSCCS(=O)(=O)CCSCCNC(=O)C[C@H]3CCCN3C2=O)cc1 [C1-X33-L2] at or above 90?
1
